Recorded pIC50 for the following compounds
# Target: KRAS G12C-BRAF complex (Homo sapiens (Human), UniProt P01116+P62937, G12C)
# Sequence (P01116-2 other isoform, or with tags, fused parts or gaps G12C): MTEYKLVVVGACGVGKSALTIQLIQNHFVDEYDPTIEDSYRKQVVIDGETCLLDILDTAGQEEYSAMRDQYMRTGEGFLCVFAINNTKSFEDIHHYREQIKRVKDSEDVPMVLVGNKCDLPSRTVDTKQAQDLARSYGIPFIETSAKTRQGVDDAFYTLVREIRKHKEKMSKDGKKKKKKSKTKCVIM
# Sequence (P62937 whole entry): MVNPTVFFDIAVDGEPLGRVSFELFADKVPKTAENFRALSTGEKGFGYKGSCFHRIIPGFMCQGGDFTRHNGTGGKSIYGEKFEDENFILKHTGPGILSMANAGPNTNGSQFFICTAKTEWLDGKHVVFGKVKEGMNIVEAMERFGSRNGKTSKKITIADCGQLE
# Experiment: KRAS-BRAF with CYPA (500 nM) interaction assay (TR-FRET, Example 136)
# Experimental Conditions: KRAS G12C-BRAF disruption
pIC50: −log10 of the molar value.
Recorded Endpoint: pIC50

>>> observed_result("CO[C@@H](C)c1ncc(N2CCN(C)CC2)cc1-c1c2c3cc(cc4c3n1CCO4)-c1csc(n1)C[C@H](NC(=O)[C@H]1C[C@@H]1c1ccccc1)C(=O)N1CCC[C@H](N1)C(=O)OCC(C)(C)C2 (atropisomer, axis not shown; (M)) [Example 51]")
7.68
>>> observed_result("CO[C@@H](C)c1ncc(N2CCN(C)CC2)cc1-c1c2c3cc(cc4c3n1CCC4)-c1csc(n1)C[C@H](NC(=O)[C@H]1C[C@@H]1c1cccnn1)C(=O)N1CCC[C@H](N1)C(=O)OCC(C)(C)C2 (atropisomer, axis not shown; (M)) [Example 63]")
7.47
>>> observed_result("CO[C@@H](C)c1ncc(N2CCOCC2)cc1-c1c2c3cc(cc4c3n1CCO4)-c1csc(n1)C[C@H](NC(=O)[C@H]1C[C@@H]1C(F)F)C(=O)N1CCC[C@H](N1)C(=O)OCC(C)(C)C2 (atropisomer, axis not shown; (M)) [Example 9]")
7.68
>>> observed_result("CO[C@@H](C)c1ncc(N2CCN(C)CC2)cc1-c1c2c3cc(cc4c3n1CCO4)-c1csc(n1)C[C@H](NC(=O)C1(C)CC1C)C(=O)N1CCC[C@H](N1)C(=O)OCC(C)(C)C2 (stereo partly shown) [Example 55]")
7.63
